The measurements presented in this section are drawn from patent US5464796A.

I'd be grateful if you could share measured MIC for these entries.
# Test system: Enterocococus faecalis
# assay-summary: MIC by series dilution on Iso-Sensitest agar
# Assay type: cell-based, Enterococcus faecalis
# condition-notes: Enterococcus faecalis, 20 h, strain 9790; 37° C., about 20 hours, 10^4 colony-forming particles per spot
One number for each entry, in µg/mL.

Please report MIC for every entry that follows.
1. CNC1C=CC(C)C2CN(c3c(F)cc4c(=O)c(C(=O)O)cn(C5CC5)c4c3F)CC12 (stereo not shown)
2. CNC1C=CCC2CN(c3c(F)cc4c(=O)c(C(=O)O)cn(C5CC5)c4c3F)CC21 (stereo not shown)
3. CNC1C=CCC2CN(c3cc4c(cc3F)c(=O)c(C(=O)O)cn4C3CC3)CC21 (stereo not shown)
4. CNC1C=CCC2CN(c3nc4c(cc3F)c(=O)c(C(=O)O)cn4C3CC3)CC21.Cl (stereo not shown)

a:
0.06
0.03
0.06
0.25

====

# Test system: Providencia spp.
# assay-summary: MIC by series dilution on Iso-Sensitest agar
# Format: cell-based
# condition-notes: Providencia, 20 h, strain 12012; 37° C., about 20 hours, 10^4 colony-forming particles per spot
quantity: MIC (µg/mL)
Answers are plain numbers, in µg/mL.

Study these solved cases before continuing.
{"compound": "CNC1C=CCC2CN(c3nc4c(cc3F)c(=O)c(C(=O)O)cn4-c3ccc(F)cc3F)CC21 (stereo not shown) [11 B]", "quantity": "MIC", "recorded-measurement": 0.5}
{"compound": "CNC1C=CCC2CN(c3cc4c(c(C)c3F)c(=O)c(C(=O)O)cn4C3CC3)CC21 (stereo not shown) [Example 4]", "quantity": "MIC", "recorded-measurement": 0.25}
{"compound": "CNC1C=CCC2CN(c3c(F)cc4c(=O)c(C(=O)O)cn(C5CC5)c4c3F)CC21 (stereo not shown) [Example 1]", "quantity": "MIC", "recorded-measurement": 0.06}

Please examine the following record next.
q: Fill in: MIC of CNC1C=CCC2CN(c3nc4c(cc3F)c(=O)c(C(=O)O)cn4C3CC3)CC21.Cl (stereo not shown) [Example 10] is ___
a: 0.25

====

Please provide measured MIC for the entries that follow.
# Tested on: Staphyloccus aureus
# assay-summary: MIC by series dilution on Iso-Sensitest agar
# Assay type: cell-based, Staphylococcus aureus
# condition-notes: Staphylococcus aureus, 20 h, strain 133; 37° C., about 20 hours, 10^4 colony-forming particles per spot
Could you kindly put the unit after your number?

Study these solved cases before continuing.
{"molecule": "CNC1C=CCC2CN(c3cc4c(cc3F)c(=O)c(C(=O)O)cn4C3CC3)CC21 (stereo not shown)", "measured-target": "Staphyloccus aureus", "MIC": "0.02 µg/mL"}
{"molecule": "CNC1C=CC(C)C2CN(c3c(F)cc4c(=O)c(C(=O)O)cn(C5CC5)c4c3F)CC12 (stereo not shown)", "measured-target": "Staphyloccus aureus", "MIC": "0.02 µg/mL"}
{"molecule": "CNC1C=CCC2CN(c3nc4c(cc3F)c(=O)c(C(=O)O)cn4-c3ccc(F)cc3F)CC21 (stereo not shown)", "measured-target": "Staphyloccus aureus", "MIC": "0.06 µg/mL"}

Let's switch to this molecule now.
q: Item CNC1C=CC(C)C2CN(c3cc4c(cc3F)c(=O)c(C(=O)O)cn4C3CC3)CC12 (stereo not shown) has what recorded MIC?
a: 0.02 µg/mL
